biological target: UniProt P21453; experiment: β-Arrestin2 recruitment assay (PathHunter), S1P1 CHO-K1 cells; format: cell-based; conditions: β-arrestin2 recruitment, S1P1 CHO-K1 cells
Sequence (P21453 whole entry, looked up): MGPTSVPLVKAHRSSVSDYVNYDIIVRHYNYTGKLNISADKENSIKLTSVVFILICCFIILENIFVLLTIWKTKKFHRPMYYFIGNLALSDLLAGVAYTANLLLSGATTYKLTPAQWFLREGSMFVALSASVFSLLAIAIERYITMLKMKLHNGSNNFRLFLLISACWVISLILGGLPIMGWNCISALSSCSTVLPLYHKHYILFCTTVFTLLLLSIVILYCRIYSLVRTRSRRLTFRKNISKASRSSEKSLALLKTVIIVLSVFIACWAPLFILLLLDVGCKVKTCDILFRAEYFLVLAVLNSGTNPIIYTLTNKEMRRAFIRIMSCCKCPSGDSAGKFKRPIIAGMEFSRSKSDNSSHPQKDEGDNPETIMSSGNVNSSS
Sequence (P32121 whole entry partner, looked up): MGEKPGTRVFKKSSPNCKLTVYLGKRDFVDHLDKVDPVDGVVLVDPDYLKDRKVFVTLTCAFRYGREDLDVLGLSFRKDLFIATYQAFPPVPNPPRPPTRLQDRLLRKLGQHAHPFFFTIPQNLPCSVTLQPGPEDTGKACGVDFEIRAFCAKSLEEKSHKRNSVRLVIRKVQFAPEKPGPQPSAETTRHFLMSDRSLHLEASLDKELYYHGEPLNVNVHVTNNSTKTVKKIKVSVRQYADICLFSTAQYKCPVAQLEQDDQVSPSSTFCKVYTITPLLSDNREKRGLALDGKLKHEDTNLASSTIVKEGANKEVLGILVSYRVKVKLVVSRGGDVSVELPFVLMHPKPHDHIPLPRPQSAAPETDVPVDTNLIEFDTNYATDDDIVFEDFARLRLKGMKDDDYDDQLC
Measured Metric: hS1P1 B-arrestin2 pEC50

{"Compound": "Cc1ccccc1-c1noc(-c2ccc3c(c2)CCC(=O)N3C)n1", "Measured Metric": "hS1P1 B-arrestin2 pEC50", "Observed Measurement": "<5"}
{"Compound": "Cc1ccc(-c2nc(-c3ccc4c(c3)nnn4C(C)C)no2)s1", "Measured Metric": "hS1P1 B-arrestin2 pEC50", "Observed Measurement": "<5"}
{"Compound": "O=C1c2cc(-c3nc(-c4ccncc4)no3)ccc2OC(CO)(CO)C1Br (stereo not shown)", "Measured Metric": "hS1P1 B-arrestin2 pEC50", "Observed Measurement": "<5"}
{"Compound": "CCC1(CC)CC(=O)c2cc(-c3nc(-c4ccc(C)nc4)no3)ccc2O1", "Measured Metric": "hS1P1 B-arrestin2 pEC50", "Observed Measurement": ">5"}
{"Compound": "CC(C)n1ncc2cc(-c3nc(-c4cccc5c4OCCC5)no3)ccc21", "Measured Metric": "hS1P1 B-arrestin2 pEC50", "Observed Measurement": ">5"}
{"Compound": "CC(C)Nc1ccc(-c2nc(-c3ccc4c(c3)C(=O)NCC4)no2)cc1C#N", "Measured Metric": "hS1P1 B-arrestin2 pEC50", "Observed Measurement": ">5"}
{"Compound": "Cc1ccc(-c2noc(-c3ccc4c(c3)nnn4C3CCCC3)n2)s1", "Measured Metric": "hS1P1 B-arrestin2 pEC50", "Observed Measurement": "<5"}
{"Compound": "OCCCn1nnc2cc(-c3noc(-c4ccccc4Br)n3)ccc21", "Measured Metric": "hS1P1 B-arrestin2 pEC50", "Observed Measurement": "<5"}
{"Compound": "CC(C)n1ccc2cc(-c3noc(-c4ccccn4)n3)ccc21", "Measured Metric": "hS1P1 B-arrestin2 pEC50", "Observed Measurement": "<5"}
{"Compound": "CC(C)Nc1ccc(-c2nnc(-c3ccc4[nH]c(=O)oc4c3)o2)cc1C#N", "Measured Metric": "hS1P1 B-arrestin2 pEC50", "Observed Measurement": ">5"}
{"Compound": "CCC1(CC)CC(=O)c2cc(-c3nc(-c4ccnc(N)c4)no3)ccc2O1", "Measured Metric": "hS1P1 B-arrestin2 pEC50", "Observed Measurement": ">5"}
{"Compound": "Cc1nccnc1-c1nc(-c2ccc3c(c2)nnn3C(C)(C)CO)no1", "Measured Metric": "hS1P1 B-arrestin2 pEC50", "Observed Measurement": "<5"}
{"Compound": "CC(C)n1ccc2cc(-c3nc(-c4ccccc4O)no3)ccc21", "Measured Metric": "hS1P1 B-arrestin2 pEC50", "Observed Measurement": "<5"}

---

molecular target: human sphingosine-1-phosphate receptor 1 (S1P1) (Homo sapiens (Human), UniProt P21453); assay: Inhibition of cAMP production (HTRF cAMP HiRange), S1P1 CHO-K1 cells; format: cell-based; details: CHO-K1; efficacy (SPAN) normalized to fingolimod; read-out: hS1P1 cAMP SPAN
Sequence (P21453 whole entry, looked up): as the sequence (P21453 whole entry, looked up) above
Listed here: items and their measured Emax.

{"Chemical String": "CC(C)n1ncc2cc(-c3nc(-c4ccccc4OC(F)(F)F)no3)ccc21", "Test System": "human sphingosine-1-phosphate receptor 1 (S1P1) (Homo sapiens (Human), UniProt P21453)", "Emax": "> 75%"}
{"Chemical String": "COc1cccc(OC)c1-c1noc(-c2ccc3c(ccn3C(C)C)c2)n1", "Test System": "human sphingosine-1-phosphate receptor 1 (S1P1) (Homo sapiens (Human), UniProt P21453)", "Emax": "< 75%"}
{"Chemical String": "CCC1(CC)CC(=O)c2cc(-c3nc(-c4ccnc(C(F)(F)F)c4)no3)ccc2O1", "Test System": "human sphingosine-1-phosphate receptor 1 (S1P1) (Homo sapiens (Human), UniProt P21453)", "Emax": "< 75%"}
{"Chemical String": "COC(=O)Cn1nnc2cc(-c3noc(-c4ccccc4Br)n3)ccc21", "Test System": "human sphingosine-1-phosphate receptor 1 (S1P1) (Homo sapiens (Human), UniProt P21453)", "Emax": "> 75%"}
{"Chemical String": "Cc1ccncc1-c1nc(-c2ccc3c(c2)nnn3C(C)C)no1", "Test System": "human sphingosine-1-phosphate receptor 1 (S1P1) (Homo sapiens (Human), UniProt P21453)", "Emax": "< 75%"}
{"Chemical String": "O=C1CC2(CCCCC2)Oc2ccc(-c3nc(-c4ccncc4)no3)cc21", "Test System": "human sphingosine-1-phosphate receptor 1 (S1P1) (Homo sapiens (Human), UniProt P21453)", "Emax": "< 75%"}
{"Chemical String": "FC(F)Oc1ccc(-c2noc(-c3ccc4c(c3)nnn4C3CCCC3)n2)cc1", "Test System": "human sphingosine-1-phosphate receptor 1 (S1P1) (Homo sapiens (Human), UniProt P21453)", "Emax": "< 75%"}
{"Chemical String": "N#Cc1cc(-c2nnc(-c3ccc4[nH]ncc4c3)o2)ccc1NCCF", "Test System": "human sphingosine-1-phosphate receptor 1 (S1P1) (Homo sapiens (Human), UniProt P21453)", "Emax": "> 75%"}
{"Chemical String": "Cc1ccccc1-c1nc(-c2ccc3c(c2)nnn3CC(C)(C)O)no1", "Test System": "human sphingosine-1-phosphate receptor 1 (S1P1) (Homo sapiens (Human), UniProt P21453)", "Emax": "> 75%"}
{"Chemical String": "C=C(F)CNc1ccc(-c2nc(-c3ccc4c(c3)CCC(=O)N4)no2)cc1C#N", "Test System": "human sphingosine-1-phosphate receptor 1 (S1P1) (Homo sapiens (Human), UniProt P21453)", "Emax": "> 75%"}
{"Chemical String": "CC(C)Oc1ccccc1-c1noc(-c2ccc3c(cnn3C(C)C)c2)n1", "Test System": "human sphingosine-1-phosphate receptor 1 (S1P1) (Homo sapiens (Human), UniProt P21453)", "Emax": "> 75%"}
{"Chemical String": "COc1ccc(-c2cnc(-c3ccc4c(c3)nnn4C(C)C)s2)cc1", "Test System": "human sphingosine-1-phosphate receptor 1 (S1P1) (Homo sapiens (Human), UniProt P21453)", "Emax": "< 75%"}
{"Chemical String": "CC(C)n1nnc2cc(-c3c[nH]c(-c4ccccc4)c3)ccc21", "Test System": "human sphingosine-1-phosphate receptor 1 (S1P1) (Homo sapiens (Human), UniProt P21453)", "Emax": "< 75%"}
{"Chemical String": "Clc1ncccc1-c1noc(-c2ccc3c(c2)nnn3C2CCCC2)n1", "Test System": "human sphingosine-1-phosphate receptor 1 (S1P1) (Homo sapiens (Human), UniProt P21453)", "Emax": "> 75%"}
{"Chemical String": "COc1ccccc1-c1noc(-c2ccc3c(c2)nnn3C(C)(C)C)n1", "Test System": "human sphingosine-1-phosphate receptor 1 (S1P1) (Homo sapiens (Human), UniProt P21453)", "Emax": "> 75%"}
{"Chemical String": "COc1cc(C)c(-c2noc(-c3ccc4c(c3)nnn4C(C)C)n2)c(OC)c1", "Test System": "human sphingosine-1-phosphate receptor 1 (S1P1) (Homo sapiens (Human), UniProt P21453)", "Emax": "< 75%"}
{"Chemical String": "Cc1ccncc1-c1nc(-c2ccc3c(c2)nnn3C(C)(C)CO)no1", "Test System": "human sphingosine-1-phosphate receptor 1 (S1P1) (Homo sapiens (Human), UniProt P21453)", "Emax": "< 75%"}
{"Chemical String": "CC(C)n1nnc2cc(-c3nc4c(ccc5sccc54)o3)ccc21", "Test System": "human sphingosine-1-phosphate receptor 1 (S1P1) (Homo sapiens (Human), UniProt P21453)", "Emax": "> 75%"}
{"Chemical String": "CC(C)n1nnc2cc(-c3nc(-c4ccc5nc[nH]c5c4)no3)ccc21", "Test System": "human sphingosine-1-phosphate receptor 1 (S1P1) (Homo sapiens (Human), UniProt P21453)", "Emax": "< 75%"}
{"Chemical String": "CC(C)n1nnc2cc(-c3nc(-c4ccccc4N)co3)ccc21", "Test System": "human sphingosine-1-phosphate receptor 1 (S1P1) (Homo sapiens (Human), UniProt P21453)", "Emax": "> 75%"}
{"Chemical String": "CC(C)n1ccc2cc(-c3nc(-c4ccccc4OC(F)(F)F)no3)ccc21", "Test System": "human sphingosine-1-phosphate receptor 1 (S1P1) (Homo sapiens (Human), UniProt P21453)", "Emax": "> 75%"}
{"Chemical String": "COc1ncccc1-c1nc(-c2ccc3c(c2)nnn3C(C)C)no1", "Test System": "human sphingosine-1-phosphate receptor 1 (S1P1) (Homo sapiens (Human), UniProt P21453)", "Emax": "> 75%"}
{"Chemical String": "Cc1ccccc1-c1noc(-c2ccc3c(c2)nnn3C2CCOCC2)n1", "Test System": "human sphingosine-1-phosphate receptor 1 (S1P1) (Homo sapiens (Human), UniProt P21453)", "Emax": "< 75%"}
{"Chemical String": "O=C1CC2(CCCC2)Oc2ccc(-c3nc(-c4ccncc4)no3)cc21", "Test System": "human sphingosine-1-phosphate receptor 1 (S1P1) (Homo sapiens (Human), UniProt P21453)", "Emax": "> 75%"}
{"Chemical String": "Cc1ncccc1-c1nc(-c2ccc3c(c2)nnn3C(C)C)no1", "Test System": "human sphingosine-1-phosphate receptor 1 (S1P1) (Homo sapiens (Human), UniProt P21453)", "Emax": "< 75%"}
{"Chemical String": "CC(C)n1nnc2cc(-c3noc(-c4ccccc4OC(F)(F)F)n3)ccc21", "Test System": "human sphingosine-1-phosphate receptor 1 (S1P1) (Homo sapiens (Human), UniProt P21453)", "Emax": "> 75%"}
{"Chemical String": "CCC1(CC)CC(=O)c2cc(-c3nc(-c4ccc(NS(C)(=O)=O)cc4)no3)ccc2O1", "Test System": "human sphingosine-1-phosphate receptor 1 (S1P1) (Homo sapiens (Human), UniProt P21453)", "Emax": "> 75%"}
{"Chemical String": "CCC1(CC)CC(=O)c2cc(-c3nc(-c4cccc(OC)c4)no3)ccc2O1", "Test System": "human sphingosine-1-phosphate receptor 1 (S1P1) (Homo sapiens (Human), UniProt P21453)", "Emax": "> 75%"}
{"Chemical String": "C=CCNc1ccc(-c2nc(-c3ccc(NS(C)(=O)=O)cc3)no2)cc1C#N", "Test System": "human sphingosine-1-phosphate receptor 1 (S1P1) (Homo sapiens (Human), UniProt P21453)", "Emax": "> 75%"}
{"Chemical String": "CC(C)n1nnc2cc(-c3nc(-c4cccs4)co3)ccc21", "Test System": "human sphingosine-1-phosphate receptor 1 (S1P1) (Homo sapiens (Human), UniProt P21453)", "Emax": "> 75%"}
{"Chemical String": "CC(C)n1nnc2cc(-c3nc(-c4ccc(Cl)s4)no3)ccc21", "Test System": "human sphingosine-1-phosphate receptor 1 (S1P1) (Homo sapiens (Human), UniProt P21453)", "Emax": "< 75%"}
{"Chemical String": "N#Cc1cc(-c2nnc(-c3ccc4[nH]cnc4c3)o2)ccc1NCC1CC1", "Test System": "human sphingosine-1-phosphate receptor 1 (S1P1) (Homo sapiens (Human), UniProt P21453)", "Emax": "> 75%"}
{"Chemical String": "Cc1cc(-c2nc(-c3ccc4c(c3)nnn4C(C)C)no2)ccn1", "Test System": "human sphingosine-1-phosphate receptor 1 (S1P1) (Homo sapiens (Human), UniProt P21453)", "Emax": "< 75%"}
{"Chemical String": "CC(C)n1nnc2cc(-c3noc(C4CCOCC4)n3)ccc21", "Test System": "human sphingosine-1-phosphate receptor 1 (S1P1) (Homo sapiens (Human), UniProt P21453)", "Emax": "< 75%"}
